The values you see were collected from paper PMC6625891.

- target_under_test: S. aureus LeuRS (saLeuRS) (Staphylococcus aureus)
- Sequence (Q2FXH2 1-805): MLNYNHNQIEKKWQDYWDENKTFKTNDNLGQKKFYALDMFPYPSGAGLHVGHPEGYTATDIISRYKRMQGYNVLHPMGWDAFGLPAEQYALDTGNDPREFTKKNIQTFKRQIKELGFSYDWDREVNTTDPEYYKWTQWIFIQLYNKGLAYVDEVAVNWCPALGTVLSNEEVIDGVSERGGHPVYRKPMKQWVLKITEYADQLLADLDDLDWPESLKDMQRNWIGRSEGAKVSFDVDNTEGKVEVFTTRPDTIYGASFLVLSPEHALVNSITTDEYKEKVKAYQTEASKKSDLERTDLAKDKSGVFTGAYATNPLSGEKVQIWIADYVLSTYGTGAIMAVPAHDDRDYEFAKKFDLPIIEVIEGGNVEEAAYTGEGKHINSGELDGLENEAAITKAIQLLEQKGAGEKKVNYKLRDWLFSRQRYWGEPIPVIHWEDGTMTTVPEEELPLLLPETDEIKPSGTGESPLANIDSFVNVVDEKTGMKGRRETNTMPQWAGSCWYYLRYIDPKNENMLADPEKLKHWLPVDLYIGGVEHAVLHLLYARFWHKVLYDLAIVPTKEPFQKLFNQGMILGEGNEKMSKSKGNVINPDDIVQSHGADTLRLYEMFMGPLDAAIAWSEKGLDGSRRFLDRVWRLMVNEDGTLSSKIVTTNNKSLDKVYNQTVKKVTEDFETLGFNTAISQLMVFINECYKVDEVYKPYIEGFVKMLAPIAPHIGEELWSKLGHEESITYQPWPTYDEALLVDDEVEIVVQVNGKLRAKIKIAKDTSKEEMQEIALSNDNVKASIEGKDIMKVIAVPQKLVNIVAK

| compound | target_under_test | IC50 |
| --- | --- | --- |
| O=[N+]([O-])c1ccc(S(=O)(=O)Nc2ccc3c(c2)B(O)OC3)cc1 [PT638] | S. aureus LeuRS (saLeuRS) (Staphylococcus aureus) | > 100 µM |

====

- protocol_details: Cytotoxicity, MTT cell viability assay
- Type: cell-based
- experimental_context: monkey, vero cells

| smiles_representation | CC50 at 24 h |
| --- | --- |
| O=[N+]([O-])c1ccc(S(=O)(=O)Nc2ccc3c(c2)B(O)OC3)cc1 | ≥ 100 µg/mL |
